biological target: Metabotropic glutamate receptor 8 (Rattus norvegicus); experiment: mGluR8 Gi/Go-coupled signaling modulation – cell-based, rat, thallium flux, HTS, primary screen (AID 488969); settings: HEK293 rat mGluR8, GIRK (G protein-gated inwardly rectifying potassium channel) thallium flux, FluoZin2; at 10 µM; stronger effect = higher value; submaximal glutamate (EC20) added with thallium
In all, about 110,000 compounds were measured (“z-score”: median about -0.1, highest 2% from about 2 on). Shown is part of a subset that was picked to be rich in the highest values. Active and inactive are the calls of the source.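 Rule for the calls: active = z-score in the third read window above 3 or below -3; inactive = the rest.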

- smiles-text: "O=C(COC(=O)c1cccc([N+](=O)[O-])c1)NCc1ccc2c(c1)OCO2"
  z-score: -0.0402
- smiles-text: "O=C(Cc1cccs1)N(Cc1ccco1)C1(C(=O)NC2CCCCC2)CCCCC1"
  z-score: 1.89
- smiles-text: "Cc1ccc2oc(C(=O)Nc3nnc(C)s3)c(C)c2c1"
  z-score: -0.9
- smiles-text: "CCNc1nnc(-c2ccc(C)cc2)o1"
  z-score: 2.74
- smiles-text: "CCN(CC)S(=O)(=O)c1ccc(N2CCOCC2)c(NS(=O)(=O)c2cc(C(C)(C)C)ccc2C)c1"
  z-score: -0.103
- smiles-text: "CSc1ccccc1C(=O)Nc1cccc(C(C)=O)c1"
  z-score: "3.03 (active)"
- smiles-text: "CSc1nc(Sc2ccccc2)c2ccccc2n1"
  z-score: "4.56 (active)"
- smiles-text: "Cc1ccc(-c2nnc(Nc3ccccc3)o2)cc1"
  z-score: 1.1
- smiles-text: "CC(C)c1ccc(C(=O)N2CCCN(C(=O)c3ccc(C(C)C)cc3)CC2)cc1"
  z-score: -0.119
- smiles-text: "CSc1ccccc1C(=O)Nc1cccc(C)c1"
  z-score: -0.792
- smiles-text: "Nc1c(S(=O)(=O)c2cccs2)c2nc3ccccc3nc2n1Cc1ccc2c(c1)OCO2"
  z-score: -0.174
